# assay.system: APS (SH2B2) (Homo sapiens, UniProt O14492)
# Construct: the DNA-tagged SH2 domain concentrations used in this study were <0.1 nM; made in house; host or cells: HEK293 (transient transfection; unpurified extract)
# Sequence (O14492 417-515 limits assumed): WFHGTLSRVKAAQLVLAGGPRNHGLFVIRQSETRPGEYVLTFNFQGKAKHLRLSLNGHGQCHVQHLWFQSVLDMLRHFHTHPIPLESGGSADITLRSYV
# experiment.description: biochemical
# Assay type: binding
# stated.conditions: read-out: percent of DMSO vehicle control
Non-standard residues stand in square brackets, D forms with d. Residues, ends and D or L forms follow the SMILES beside them. *: point of attachment. pY = N[C@@H](Cc1ccc(OP(=O)(O)O)cc1)C(=O)O; Caffeoyl = O=C(/C=C/c1ccc(O)c(O)c1)*
measured.property: percent of DMSO vehicle control at 10 µM (%)
Write the answer as a number in %, unit excluded.

Use the examples below as a reference point.
CC(=O)N[C@@H](Cc1ccc(CP(=O)(O)O)cc1)C(=O)NC1(C(=O)N[C@@H](CC(N)=O)C(=O)NCCCc2c(O)ccc3ccccc23)CCCCC1 : 128
NC(=O)CC[C@H](NC(=O)[C@@H]1CC[C@@H]2CCN(C(=O)CCCCCC#Cc3cccc4c3CN(C3CCC(=O)NC3=O)C4=O)C[C@H](NC(=O)c3cc4cc(C(F)(F)P(=O)(O)O)ccc4[nH]3)C(=O)N21)C(=O)NC(c1ccccc1)c1ccccc1 (stereo partly shown) : 140

Ask: I have this molecule here, `CC(=O)N1CC[C@H]2CC[C@@H](C(=O)N[C@@H](CCC(N)=O)C(=O)NC(c3ccccc3)c3ccccc3)N2C(=O)[C@@H](NC(=O)c2cc3cc(C(F)(F)P(=O)(O)O)ccc3[nH]2)C1` , and I need its recorded percent of DMSO vehicle control at 10 µM.
Result: 130

Ask: // query: CC[C@H](C)[C@H](NC(=O)[C@H](CCC(=O)O)NC(=O)[C@H](CCC(=O)O)NC(=O)[C@H](Cc1ccc(OP(=O)(O)O)cc1)NC(=O)/C=C/c1ccc(O)c(O)c1)C(=O)N[C@@H](CCC(=O)O)C(=O)O [Caffeic acid-pYEEIE] (Caffeoyl-[pY]EEIE-OH)
Result: 2.2

* * *

# assay.system: LCK (Homo sapiens)
# Construct: the DNA-tagged SH2 domain concentrations used in this study were <0.1 nM; made in house; host or cells: HEK293 (transient transfection, unpurified extract)
# Sequence (P06239 127-224 limits assumed): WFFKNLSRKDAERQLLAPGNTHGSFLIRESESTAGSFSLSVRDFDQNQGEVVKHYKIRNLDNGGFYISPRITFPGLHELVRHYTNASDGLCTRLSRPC
# experiment.description: biochemical
# Type: binding
# stated.conditions: read-out: percent of DMSO vehicle control
Non-standard residues stand in square brackets, D forms with d. Residues, ends and D or L forms follow the SMILES beside them. *: point of attachment. pY = N[C@@H](Cc1ccc(OP(=O)(O)O)cc1)C(=O)O; Caffeoyl = O=C(/C=C/c1ccc(O)c(O)c1)*
Each item that follows carries a reported percent of DMSO vehicle control at 10 µM.
Write the answer as a number in %, unit excluded.

CC[C@H](C)[C@H](NC(=O)[C@H](CCC(=O)O)NC(=O)[C@H](CCC(=O)O)NC(=O)[C@H](Cc1ccc(OP(=O)(O)O)cc1)NC(=O)/C=C/c1ccc(O)c(O)c1)C(=O)N[C@@H](CCC(=O)O)C(=O)O [Caffeic acid-pYEEIE] (Caffeoyl-[pY]EEIE-OH) : 0
NC(=O)CC[C@H](NC(=O)[C@@H]1CC[C@@H]2CCN(C(=O)CCCCCC#Cc3cccc4c3CN(C3CCC(=O)NC3=O)C4=O)C[C@H](NC(=O)c3cc4cc(C(F)(F)P(=O)(O)O)ccc4[nH]3)C(=O)N21)C(=O)NC(c1ccccc1)c1ccccc1 (stereo partly shown) [SD-36] : 97.3

Ask: I have this compound here, CC(=O)N[C@@H](Cc1ccc(CP(=O)(O)O)cc1)C(=O)NC1(C(=O)N[C@@H](CC(N)=O)C(=O)NCCCc2c(O)ccc3ccccc23)CCCCC1 [CGP78850] , and I need its recorded percent of DMSO vehicle control at 10 µM.
Result: 46

Ask: // query: CC(=O)N1CC[C@H]2CC[C@@H](C(=O)N[C@@H](CCC(N)=O)C(=O)NC(c3ccccc3)c3ccccc3)N2C(=O)[C@@H](NC(=O)c2cc3cc(C(F)(F)P(=O)(O)O)ccc3[nH]2)C1 [SI-109]
Result: 127
